Assay: Maximum concentration in brain was determined at the peroral dose of 10 mg/kg in diet-induced obese (DIO) mice; unit may be ng/mL or ng/g
Type: ADME, organism-based
Design: dose 10 mg/kg, route oral
Conditions: mouse, po

{"COMPOUND": "Nc1ccc2cccc(O[C@H]3CCN(Cc4ccc5c(c4)OCO5)C3)c2n1", "Cmax / ng/mL": 183}
{"COMPOUND": "Nc1ccc2cccc(OC3CCN(c4ccc5c(c4)OC(F)(F)O5)C3)c2n1 (configuration not stated)", "Cmax / ng/mL": 2860}
